Tested on: CCRF-CEM
PROTOCOL_DESCRIPTION: Cytotoxicity against human CCRF-CEM cells assessed as cellular growth at 10 uM by SRB assay
Assay type: functional
Please use rule met for Activity under 90% and rule not met for everything else, ties included.

Check out these entries, answers already filled in.
{"MOL_SMILES": "O=C(Nc1nc2ccc(Cl)cc2s1)c1ccc(Cl)cc1Cl", "CATEGORY_LABEL": "rule not met"}
{"MOL_SMILES": "O=C(NCCc1ccc(Cl)cc1)c1[nH]c2ccccc2c1Cl", "CATEGORY_LABEL": "rule not met"}
{"MOL_SMILES": "Cc1cc(C)c(NC(=O)c2sc3nc4c(cc3c2N)C(=O)CCC4)c(C)c1", "CATEGORY_LABEL": "rule met"}
{"MOL_SMILES": "Clc1ccc(-c2nc(-c3cccs3)no2)c(Cl)c1", "CATEGORY_LABEL": "rule met"}

Determine if "COc1cccc(C(=O)Nc2nc3ccc(Cl)cc3s2)c1" shows Activity strictly lower than 90%.
rule met

Is Activity of "Cc1ccc(Cl)cc1NC(=O)c1sc2nc3c(cc2c1N)C(=O)CCC3" strictly below 90%?
rule met

Strictly below 90%: is that where Activity of "Cc1ccc(NC(=O)c2sc3nc4c(cc3c2N)C(=O)CCC4)c(Br)c1" sits?
rule not met

API: query returns whether the compound falls strictly under 90% in Activity. Query: "O=C(Nc1nc2ccc(Cl)cc2s1)c1ccc(Cl)cc1"
rule not met

Is Activity of "O=C(Nc1nc2ccccc2s1)c1ccc(F)cc1" strictly below 90%?
rule not met

Field: below-cutoff. Rule: recorded Activity strictly less than 90%. Subject: "CC1(C)CCc2cc(-c3ccn(S(=O)(=O)c4cccc(C(F)(F)F)c4)n3)ccc2O1"
rule met

Does "Nc1c(C(=O)Nc2cccc(Cl)c2)sc2nc3c(cc12)C(=O)CCC3" have Activity strictly under 90%?
rule met

API: query returns whether the compound falls strictly under 90% in Activity. Query: "Nc1c(C(=O)NCc2ccccc2)sc2nc3c(cc12)C(=O)CCC3"
rule not met

====

System: A498
PROTOCOL_DESCRIPTION: Cytotoxicity against human A498 cells assessed as cellular growth at 10 uM by SRB assay
Assay type: functional
QUANTITY_KIND: Activity (%)
Numbers only, in %.

Would you please look over these solved cases?
{"MOL_SMILES": "Cc1c(OCC(=O)c2ccccc2)ccc2c1oc(=O)c1ccccc12", "UNIT_SPEC": "%", "Activity": 91.47}
{"MOL_SMILES": "O=C(Nc1nc2ccccc2s1)c1ccc(F)cc1", "UNIT_SPEC": "%", "Activity": 89.82}
{"MOL_SMILES": "Cc1cc(C)c(NC(=O)c2sc3nc4c(cc3c2N)C(=O)CC(C)(C)C4)c(C)c1", "UNIT_SPEC": "%", "Activity": 89.84}

Endpoint output: Activity of "Clc1ccccc1Nc1nnc(-c2ccncc2)s1" . Value?
92.09

====

Tested on: CCRF-CEM
PROTOCOL_DESCRIPTION: Cytotoxicity against human CCRF-CEM cells assessed as cellular growth at 10 uM by SRB assay
Type: functional
QUANTITY_KIND: Activity (%)
Numbers only, in %.

{"MOL_SMILES": "COc1ccc2nc(NC(=O)c3ccc(F)cc3)sc2c1", "Activity (%)": 91.13}
{"MOL_SMILES": "Cc1ccc(S(=O)(=O)NC2=NC(=O)/C(=C\\c3ccccc3)S2)cc1", "Activity (%)": 92.01}
{"MOL_SMILES": "O=S(=O)(Oc1ccc(-c2cnc3ccccc3n2)cc1)c1ccc2ccccc2c1", "Activity (%)": 90.35}

Okay, now this molecule:
GET /values?readout=Activity&item= "Oc1ccccc1-c1nc(-c2cccs2)no1"
91.77
